This collection of values is drawn from ChEMBL document CHEMBL1139415.

assay system: Prostaglandin D2 receptor (Homo sapiens)
Sequence (Q13258 whole entry): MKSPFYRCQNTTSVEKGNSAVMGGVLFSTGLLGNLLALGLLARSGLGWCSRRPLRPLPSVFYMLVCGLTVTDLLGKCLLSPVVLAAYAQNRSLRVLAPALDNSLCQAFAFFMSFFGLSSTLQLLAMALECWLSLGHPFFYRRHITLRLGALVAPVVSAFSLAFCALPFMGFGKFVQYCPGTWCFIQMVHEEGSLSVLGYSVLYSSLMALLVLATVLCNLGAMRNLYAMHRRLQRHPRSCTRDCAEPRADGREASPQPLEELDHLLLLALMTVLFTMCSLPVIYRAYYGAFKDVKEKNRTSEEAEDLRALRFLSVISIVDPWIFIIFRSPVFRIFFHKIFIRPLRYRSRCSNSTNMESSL
protocol details: Inhibition of prostanoid DP receptor
pIC50: −log10 of the molar value.
quantity name: pIC50

Cc1c(C(=O)c2ccc(Cl)cc2)c2ccc(OC(F)(F)F)cc2n1Cc1cccc(O[C@H](C)C(=O)O)c1: 5.07

* * *

assay system: Beta-3 adrenergic receptor (Homo sapiens)
Sequence (P13945 whole entry): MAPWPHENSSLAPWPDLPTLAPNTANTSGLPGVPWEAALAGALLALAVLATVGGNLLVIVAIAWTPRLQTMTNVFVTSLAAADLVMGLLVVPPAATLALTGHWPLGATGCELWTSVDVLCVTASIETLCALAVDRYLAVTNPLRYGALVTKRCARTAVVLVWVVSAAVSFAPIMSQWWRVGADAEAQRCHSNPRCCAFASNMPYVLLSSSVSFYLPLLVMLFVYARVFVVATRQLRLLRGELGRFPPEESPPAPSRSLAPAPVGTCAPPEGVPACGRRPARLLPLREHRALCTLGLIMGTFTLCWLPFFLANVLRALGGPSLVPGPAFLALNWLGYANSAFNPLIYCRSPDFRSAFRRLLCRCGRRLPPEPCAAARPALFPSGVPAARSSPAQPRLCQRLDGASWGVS
quantity name: IC50 (µM)

Cc1c(C(=O)c2ccc(Cl)cc2)c2ccc(OC(F)(F)F)cc2n1Cc1cccc(O[C@H](C)C(=O)O)c1: 4.86

* * *

assay system: Mu-type opioid receptor (Homo sapiens)
Sequence (P35372 whole entry): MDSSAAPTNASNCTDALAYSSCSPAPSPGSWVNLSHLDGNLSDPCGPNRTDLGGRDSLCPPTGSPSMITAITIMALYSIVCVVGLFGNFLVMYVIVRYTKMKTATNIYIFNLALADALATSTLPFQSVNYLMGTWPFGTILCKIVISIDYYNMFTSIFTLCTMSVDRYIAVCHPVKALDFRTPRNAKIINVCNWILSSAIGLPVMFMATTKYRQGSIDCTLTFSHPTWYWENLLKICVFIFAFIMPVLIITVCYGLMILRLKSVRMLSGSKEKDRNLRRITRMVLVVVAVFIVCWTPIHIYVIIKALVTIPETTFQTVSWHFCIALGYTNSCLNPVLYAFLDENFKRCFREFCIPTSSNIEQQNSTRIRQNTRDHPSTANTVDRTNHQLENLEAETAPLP
quantity name: IC50 (nM)

Cc1c(C(=O)c2ccc(Cl)cc2)c2ccc(OC(F)(F)F)cc2n1Cc1cccc(O[C@H](C)C(=O)O)c1: 1860

* * *

clearance for assorted compounds
protocol details: Clearance in Sprague-Dawley rat at 0.5 mg, iv and 2.0 mg, po
Format: ADME, organism-based
test conditions: in vivo
quantity name: clearance (mL/min/kg)

Cc1c(Oc2ccc(Cl)cc2)c2cccnc2n1Cc1cc(O[C@@H](C)C(=O)O)ccc1F: 22.1
COc1ccc(C(=O)c2c(C)n(Cc3cccc(O[C@@H](C)C(=O)O)c3)c3ncccc23)cc1: 115
Cc1c(Oc2ccc(Cl)cc2)c2cccnc2n1Cc1cc(O[C@@H](C)C(=O)O)ccc1Cl: 21.8
COc1ccc(C(=O)c2c(C)n(Cc3cc(O[C@@H](C)C(=O)O)ccc3F)c3nc(C)ccc23)cc1: 32
COc1ccc(C(=O)c2c(C)n(Cc3cc(O[C@@H](C)C(=O)O)ccc3F)c3ncccc23)cc1: 31.7
Cc1c(Oc2ccc(Cl)cc2)c2ccc(C(F)(F)F)nc2n1Cc1ccc(Cl)c(O[C@@H](C)C(=O)O)c1: 12.4
COc1ccc(C(=O)c2c(C)n(Cc3cccc(O[C@@H](C)C(=O)O)c3)c3nc(C)ccc23)cc1: 28

* * *

assay system: Prostacyclin receptor (Homo sapiens, UniProt P43119)
Sequence (P43119 whole entry): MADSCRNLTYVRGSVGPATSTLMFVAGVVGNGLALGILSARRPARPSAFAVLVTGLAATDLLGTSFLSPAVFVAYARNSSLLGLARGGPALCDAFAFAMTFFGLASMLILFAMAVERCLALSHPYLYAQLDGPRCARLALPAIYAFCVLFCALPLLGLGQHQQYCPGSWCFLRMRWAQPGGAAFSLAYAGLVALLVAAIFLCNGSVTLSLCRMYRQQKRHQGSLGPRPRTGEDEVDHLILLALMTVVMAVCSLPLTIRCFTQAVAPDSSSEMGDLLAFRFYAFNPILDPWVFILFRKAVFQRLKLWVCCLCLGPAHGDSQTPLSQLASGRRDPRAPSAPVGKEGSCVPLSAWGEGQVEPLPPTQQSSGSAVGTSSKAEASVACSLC
quantity name: IC50 (µM)

Cc1c(C(=O)c2ccc(Cl)cc2)c2ccc(OC(F)(F)F)cc2n1Cc1cccc(O[C@H](C)C(=O)O)c1: 6.34

* * *

protocol details: Inhibition of PDE2
quantity name: IC50

Cc1c(C(=O)c2ccc(Cl)cc2)c2ccc(OC(F)(F)F)cc2n1Cc1cccc(O[C@H](C)C(=O)O)c1: 29.1 µM

* * *

assay system: Sodium-dependent dopamine transporter (Homo sapiens, UniProt Q01959)
Sequence (Q01959 whole entry): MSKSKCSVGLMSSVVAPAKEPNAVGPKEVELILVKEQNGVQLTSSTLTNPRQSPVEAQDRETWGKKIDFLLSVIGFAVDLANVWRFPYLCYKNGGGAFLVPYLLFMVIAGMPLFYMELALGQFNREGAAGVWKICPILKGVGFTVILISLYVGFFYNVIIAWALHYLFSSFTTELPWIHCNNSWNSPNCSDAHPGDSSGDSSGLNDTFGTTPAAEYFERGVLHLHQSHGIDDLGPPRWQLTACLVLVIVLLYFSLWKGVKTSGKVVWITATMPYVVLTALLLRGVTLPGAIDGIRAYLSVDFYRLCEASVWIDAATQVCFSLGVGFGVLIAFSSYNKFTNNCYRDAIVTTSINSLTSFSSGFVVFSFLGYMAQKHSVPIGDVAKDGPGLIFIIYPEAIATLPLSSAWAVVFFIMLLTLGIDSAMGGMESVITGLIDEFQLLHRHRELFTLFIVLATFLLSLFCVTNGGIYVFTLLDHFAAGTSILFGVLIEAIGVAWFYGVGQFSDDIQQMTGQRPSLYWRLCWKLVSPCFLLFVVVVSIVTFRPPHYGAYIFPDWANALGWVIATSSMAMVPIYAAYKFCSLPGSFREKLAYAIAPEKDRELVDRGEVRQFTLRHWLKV
quantity name: IC50 (µM)

Cc1c(C(=O)c2ccc(Cl)cc2)c2ccc(OC(F)(F)F)cc2n1Cc1cccc(O[C@H](C)C(=O)O)c1: 3.41

* * *

assay system: Peroxisome proliferator-activated receptor gamma (Homo sapiens, UniProt P37231)
Sequence (P37231 whole entry, the tested form may be a part): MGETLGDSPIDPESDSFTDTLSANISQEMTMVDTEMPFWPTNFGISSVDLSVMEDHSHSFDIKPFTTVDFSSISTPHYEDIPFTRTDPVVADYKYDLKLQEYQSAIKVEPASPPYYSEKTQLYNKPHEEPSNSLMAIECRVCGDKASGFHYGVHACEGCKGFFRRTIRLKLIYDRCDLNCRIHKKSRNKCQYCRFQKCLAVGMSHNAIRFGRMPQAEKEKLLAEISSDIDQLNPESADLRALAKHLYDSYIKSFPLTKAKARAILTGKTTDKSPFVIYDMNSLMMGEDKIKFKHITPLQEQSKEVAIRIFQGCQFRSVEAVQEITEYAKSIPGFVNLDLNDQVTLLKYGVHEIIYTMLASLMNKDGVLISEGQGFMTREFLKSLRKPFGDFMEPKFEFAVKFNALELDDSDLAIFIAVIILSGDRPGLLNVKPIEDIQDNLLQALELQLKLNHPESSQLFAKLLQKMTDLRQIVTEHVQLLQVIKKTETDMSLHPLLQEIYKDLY
protocol details: Agonist activity at human PPARgamma receptor expressed in african green monkey COS cells after 48 hrs by GAL4 transactivation assay
quantity name: log10 of EC50 (log10 of the value in nM)

Cc1c(C(=O)c2ccc(Cl)cc2)c2ccc(OC(F)(F)F)cc2n1Cc1cccc(O[C@@H](C)C(=O)O)c1: 0.00
COc1ccc(C(=O)c2c(C)n(Cc3cc(O[C@@H](C)C(=O)O)ccc3F)c3ncccc23)cc1: 0.48
COc1ccc(C(=O)c2c(C)n(Cc3cccc(O[C@@H](C)C(=O)O)c3)c3ncccc23)cc1: 1.43
Cc1c(Oc2ccc(Cl)cc2)c2ccc(Cl)nc2n1Cc1ccc(Cl)c(O[C@@H](C)C(=O)O)c1: 0.60
COc1ccc(C(=O)c2c(C)n(Cc3cc(O[C@@H](C)C(=O)O)ccc3F)c3nc(OC)ccc23)cc1: 0.00
Cc1c(Oc2ccc(Cl)cc2)c2ccc(F)nc2n1Cc1ccc(Cl)c(O[C@@H](C)C(=O)O)c1: 0.60
Cc1c(Oc2ccc(Cl)cc2)c2cccnc2n1Cc1cc(O[C@@H](C)C(=O)O)ccc1F: 2.19
COc1ccc(C(=O)c2c(C)n(Cc3ccc(Cl)c(O[C@@H](C)C(=O)O)c3)c3nc(OC)ccc23)cc1: 0.00
COc1ccc(C(=O)c2c(C)n(Cc3ccc(F)c(O[C@@H](C)C(=O)O)c3)c3ncccc23)cc1: 0.48
COc1ccc(C(=O)c2c(C)n(Cc3cc(O[C@@H](C)C(=O)O)ccc3Cl)c3nc(OC)ccc23)cc1: 0.30
COc1ccc(C(=O)c2c(C)n(Cc3cccc(O[C@@H](C)C(=O)O)c3)c3nc(C)ccc23)cc1: 0.95
Cc1c(Oc2ccc(Cl)cc2)c2ccc(F)nc2n1Cc1cc(O[C@@H](C)C(=O)O)ccc1Cl: 0.60
Cc1c(Oc2ccc(Cl)cc2)c2ccc(C(F)(F)F)nc2n1Cc1ccc(Cl)c(O[C@@H](C)C(=O)O)c1: 1.36
Cc1c(Oc2ccc(Cl)cc2)c2ccc(F)nc2n1Cc1ccc(F)c(O[C@@H](C)C(=O)O)c1: 1.97

* * *

assay system: D(2) dopamine receptor (Homo sapiens, UniProt P14416)
Sequence (P14416 whole entry): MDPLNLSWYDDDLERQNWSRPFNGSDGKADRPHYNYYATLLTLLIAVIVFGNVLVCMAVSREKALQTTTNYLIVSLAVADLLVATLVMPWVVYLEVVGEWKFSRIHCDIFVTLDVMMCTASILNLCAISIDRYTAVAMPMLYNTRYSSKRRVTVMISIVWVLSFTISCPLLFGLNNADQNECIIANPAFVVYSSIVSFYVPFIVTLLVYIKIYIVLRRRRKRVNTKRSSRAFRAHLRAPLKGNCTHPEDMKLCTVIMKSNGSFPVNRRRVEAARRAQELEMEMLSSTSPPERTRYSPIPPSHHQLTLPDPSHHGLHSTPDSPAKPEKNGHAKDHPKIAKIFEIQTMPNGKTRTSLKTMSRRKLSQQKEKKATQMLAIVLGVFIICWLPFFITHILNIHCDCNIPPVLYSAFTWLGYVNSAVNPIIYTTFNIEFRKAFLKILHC
pIC50: −log10 of the molar value.
quantity name: pIC50

Cc1c(C(=O)c2ccc(Cl)cc2)c2ccc(OC(F)(F)F)cc2n1Cc1cccc(O[C@H](C)C(=O)O)c1: 5.45

* * *

assay system: Cytochrome P450 2C9 (Homo sapiens)
Sequence (P11712 whole entry): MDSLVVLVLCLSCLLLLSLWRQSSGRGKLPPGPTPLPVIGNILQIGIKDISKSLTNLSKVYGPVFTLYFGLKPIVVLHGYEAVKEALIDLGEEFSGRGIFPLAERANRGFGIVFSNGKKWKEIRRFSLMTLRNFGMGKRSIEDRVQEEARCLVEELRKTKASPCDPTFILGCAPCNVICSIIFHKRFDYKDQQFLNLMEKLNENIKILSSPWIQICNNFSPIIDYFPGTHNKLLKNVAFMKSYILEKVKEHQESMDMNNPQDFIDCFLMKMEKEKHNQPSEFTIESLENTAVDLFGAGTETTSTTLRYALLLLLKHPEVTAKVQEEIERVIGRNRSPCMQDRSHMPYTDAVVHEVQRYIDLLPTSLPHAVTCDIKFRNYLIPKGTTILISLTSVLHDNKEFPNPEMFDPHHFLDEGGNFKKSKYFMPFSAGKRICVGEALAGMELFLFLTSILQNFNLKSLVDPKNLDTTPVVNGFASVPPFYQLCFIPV
quantity name: IC50 (µM)

Cc1c(C(=O)c2ccc(Cl)cc2)c2ccc(OC(F)(F)F)cc2n1Cc1cccc(O[C@@H](C)C(=O)O)c1: 5.6

* * *

assay system: Delta-type opioid receptor (Homo sapiens, UniProt P41143)
Sequence (P41143 whole entry): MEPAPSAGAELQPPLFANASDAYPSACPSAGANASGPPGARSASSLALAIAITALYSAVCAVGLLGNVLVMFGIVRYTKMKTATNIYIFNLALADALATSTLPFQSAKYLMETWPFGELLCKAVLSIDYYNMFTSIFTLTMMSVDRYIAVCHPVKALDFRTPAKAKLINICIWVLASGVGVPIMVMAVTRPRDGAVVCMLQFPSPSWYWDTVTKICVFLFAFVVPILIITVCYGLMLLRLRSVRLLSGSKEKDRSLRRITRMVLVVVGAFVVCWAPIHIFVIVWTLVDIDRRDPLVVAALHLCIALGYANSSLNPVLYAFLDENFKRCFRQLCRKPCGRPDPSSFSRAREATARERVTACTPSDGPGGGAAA
protocol details: Displacement of radioligand from delta opioid receptor
quantity name: IC50

Cc1c(C(=O)c2ccc(Cl)cc2)c2ccc(OC(F)(F)F)cc2n1Cc1cccc(O[C@H](C)C(=O)O)c1: 1690 nM

* * *

assay system: Sodium-dependent serotonin transporter (Homo sapiens, UniProt P31645)
Sequence (P31645 whole entry): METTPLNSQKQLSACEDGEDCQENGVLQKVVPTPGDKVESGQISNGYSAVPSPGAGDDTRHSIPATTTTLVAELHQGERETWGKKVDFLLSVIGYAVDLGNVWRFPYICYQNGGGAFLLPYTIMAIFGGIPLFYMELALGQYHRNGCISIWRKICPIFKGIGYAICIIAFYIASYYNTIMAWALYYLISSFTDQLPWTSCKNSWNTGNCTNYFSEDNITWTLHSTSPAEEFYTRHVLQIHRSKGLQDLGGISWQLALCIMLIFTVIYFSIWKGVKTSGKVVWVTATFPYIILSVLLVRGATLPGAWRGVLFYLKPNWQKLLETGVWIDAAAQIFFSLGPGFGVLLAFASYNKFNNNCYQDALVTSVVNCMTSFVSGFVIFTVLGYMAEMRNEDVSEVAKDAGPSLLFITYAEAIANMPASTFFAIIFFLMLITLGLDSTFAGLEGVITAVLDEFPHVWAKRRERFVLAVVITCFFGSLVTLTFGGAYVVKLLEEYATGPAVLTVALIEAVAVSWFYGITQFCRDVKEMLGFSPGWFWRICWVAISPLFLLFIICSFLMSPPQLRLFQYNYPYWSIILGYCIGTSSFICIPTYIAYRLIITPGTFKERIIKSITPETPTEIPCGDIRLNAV
pIC50: −log10 of the molar value.
quantity name: pIC50

Cc1c(C(=O)c2ccc(Cl)cc2)c2ccc(OC(F)(F)F)cc2n1Cc1cccc(O[C@H](C)C(=O)O)c1: 6.01

* * *

Listed compounds paired with reported clearance
protocol details: Clearance in Sprague-Dawley rat at 0.5 mg, iv and 2.0 mg, po
Format: ADME, organism-based
test conditions: in vivo
quantity name: clearance (mL/min/kg)

Cc1c(Oc2ccc(Cl)cc2)c2ccc(F)nc2n1Cc1ccc(Cl)c(O[C@@H](C)C(=O)O)c1: 23
Cc1c(C(=O)c2ccc(Cl)cc2)c2ccc(OC(F)(F)F)cc2n1Cc1cccc(O[C@@H](C)C(=O)O)c1: 21.7
Cc1c(Oc2ccc(Cl)cc2)c2ccc(Cl)nc2n1Cc1ccc(Cl)c(O[C@@H](C)C(=O)O)c1: 27
COc1ccc(C(=O)c2c(C)n(Cc3cc(O[C@@H](C)C(=O)O)ccc3F)c3nc(OC)ccc23)cc1: 7.4

* * *

Tested on: Mus musculus
protocol details: Antiglycemic activity in db/db mouse assessed as glucose correction at 30 mg/kg, po administered daily for 11 days
Format: functional
quantity name: Activity (%)

Cc1c(Oc2ccc(Cl)cc2)c2ccc(Cl)nc2n1Cc1ccc(Cl)c(O[C@@H](C)C(=O)O)c1: 44
Cc1c(Oc2ccc(Cl)cc2)c2ccc(F)nc2n1Cc1ccc(Cl)c(O[C@@H](C)C(=O)O)c1: 30
COc1ccc(C(=O)c2c(C)n(Cc3cc(O[C@@H](C)C(=O)O)ccc3F)c3nc(OC)ccc23)cc1: 35
COc1ccc(C(=O)c2c(C)n(Cc3cc(O[C@@H](C)C(=O)O)ccc3Cl)c3nc(OC)ccc23)cc1: 32

* * *

protocol details: Half life in Sprague-Dawley rat at 0.5 mg, iv and 2.0 mg, po
Assay type: ADME, organism-based
test conditions: in vivo
quantity name: half-life (min)

Cc1c(Oc2ccc(Cl)cc2)c2ccc(F)nc2n1Cc1ccc(Cl)c(O[C@@H](C)C(=O)O)c1: 48
COc1ccc(C(=O)c2c(C)n(Cc3cc(O[C@@H](C)C(=O)O)ccc3F)c3nc(OC)ccc23)cc1: 84
Cc1c(Oc2ccc(Cl)cc2)c2cccnc2n1Cc1cc(O[C@@H](C)C(=O)O)ccc1F: 96
Cc1c(C(=O)c2ccc(Cl)cc2)c2ccc(OC(F)(F)F)cc2n1Cc1cccc(O[C@@H](C)C(=O)O)c1: 90
COc1ccc(C(=O)c2c(C)n(Cc3cccc(O[C@@H](C)C(=O)O)c3)c3nc(C)ccc23)cc1: 144
Cc1c(Oc2ccc(Cl)cc2)c2cccnc2n1Cc1cc(O[C@@H](C)C(=O)O)ccc1Cl: 72
COc1ccc(C(=O)c2c(C)n(Cc3cc(O[C@@H](C)C(=O)O)ccc3F)c3ncccc23)cc1: 108

* * *

protocol details: Half life in Sprague-Dawley rat at 0.5 mg, iv and 2.0 mg, po
Format: ADME, organism-based
test conditions: in vivo
Each record here notes measured half-life.
quantity name: half-life (h)

Cc1c(Oc2ccc(Cl)cc2)c2ccc(C(F)(F)F)nc2n1Cc1ccc(Cl)c(O[C@@H](C)C(=O)O)c1: 1.9
COc1ccc(C(=O)c2c(C)n(Cc3cc(O[C@@H](C)C(=O)O)ccc3F)c3nc(C)ccc23)cc1: 1.9
COc1ccc(C(=O)c2c(C)n(Cc3cccc(O[C@@H](C)C(=O)O)c3)c3ncccc23)cc1: 2
Cc1c(Oc2ccc(Cl)cc2)c2ccc(Cl)nc2n1Cc1ccc(Cl)c(O[C@@H](C)C(=O)O)c1: 1.2
